Cited source for all entries: patent US20210355105A1

Test: Pharmacokinetics assay in MiaPaca 2 tumor-bearing mice (plasma, tumor tissue, intestine)
Assay type: in vivo
Settings: female, mouse, Duodenum, oral 6 mg/kg
MEASUREMENT NAME: AUC(0-inf)
# include the unit after the value

Task: Field request: AUC(0-inf) | item: Nc1nc(N2CCC3(CC2)Cc2ccccc2[C@H]3N)c(F)nc1Sc1ccnc(N)c1Cl [Example 179]
Output: 16300 ng·h/mL

* * *

Test: Pharmacokinetics assay in MiaPaca 2 tumor-bearing mice (plasma, tumor tissue, intestine)
Assay type: in vivo
Conditions: female, mouse, Colon, oral 6 mg/kg
MEASUREMENT NAME: MRT (h)
Number in h, nothing else.

Task: Returns the measured MRT for the input molecule. Input: Nc1nc(N2CCC3(CC2)Cc2ccccc2[C@H]3N)c(F)nc1Sc1ccnc(N)c1Cl
Output: 5.8

* * *

Test system: human pancreatic cancer cell MiaPaca 2 xenograft
Test: Tumor inhibition test on MiaPaca 2 xenograft model
Format: in vivo, Balb/c nude mice
Settings: 6 mg/kg QD × 3 w, intragastric, Day 21
MEASUREMENT NAME: ΔT/ΔC Day 21 (%)
Return type: number; implicit unit %.

Task: Form field: reported ΔT/ΔC Day 21 of Cc1nc(Sc2ccnc(N)c2Cl)c(N)nc1N1CCC2(CC1)Cc1ccccc1[C@H]2N [Example 96]
Output: 2.24

Task: Moving on to Nc1nc(N2CCC3(CC2)Cc2ccccc2[C@H]3N)c(F)nc1Sc1ccnc(N)c1Cl [Example 179]
Output: 9.00

Task: And for Nc1nc(N2CCC3(CC=C(C4CC4)[C@H]3N)CC2)cnc1Sc1ccnc(N)c1Cl [Example 143] ?
Output: 4.36

Task: What about Cc1nc(N2CCC3(CC2)Cc2ncsc2[C@H]3N)c(CO)nc1Sc1ccnc(N)c1Cl [Example 171] ?
Output: 4.57

* * *

Experiment: Pharmacokinetics assay in MiaPaca 2 tumor-bearing mice (plasma, tumor tissue, intestine)
Type: in vivo
Details: female, mouse, Plasma, oral 6 mg/kg
MEASUREMENT NAME: Tmax (h)
Respond with the bare value in h.

Task: Given Nc1nc(N2CCC3(CC2)Cc2ccccc2[C@H]3N)c(F)nc1Sc1ccnc(N)c1Cl [Example 179] , state its recorded Tmax.
Output: 1
